Reference source: ChEMBL document CHEMBL4196174

Target: Cytochrome P450 1A2 (Homo sapiens)
Sequence (P05177 whole entry): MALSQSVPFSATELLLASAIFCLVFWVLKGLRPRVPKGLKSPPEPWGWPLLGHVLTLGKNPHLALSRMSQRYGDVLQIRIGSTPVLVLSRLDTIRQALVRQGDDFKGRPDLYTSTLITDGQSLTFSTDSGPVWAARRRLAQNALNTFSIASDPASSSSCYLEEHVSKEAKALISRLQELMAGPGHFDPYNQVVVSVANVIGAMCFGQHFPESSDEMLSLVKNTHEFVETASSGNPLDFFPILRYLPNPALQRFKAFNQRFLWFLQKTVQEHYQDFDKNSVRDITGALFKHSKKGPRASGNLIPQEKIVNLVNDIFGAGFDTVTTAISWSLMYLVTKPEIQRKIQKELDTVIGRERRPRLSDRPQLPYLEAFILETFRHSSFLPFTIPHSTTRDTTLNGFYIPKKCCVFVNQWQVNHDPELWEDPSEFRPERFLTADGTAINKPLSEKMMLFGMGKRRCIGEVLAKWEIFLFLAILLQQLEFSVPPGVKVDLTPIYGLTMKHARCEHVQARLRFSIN
metric: IC50 (µM)

(I) COc1cccc(NC(C(=O)c2c[nH]c3ccccc23)c2nc3ccccc3o2)c1 (stereo not drawn)
(II) COc1cc(NC(C(=O)c2c[nH]c3ccccc23)c2ccccc2)cc(OC)c1 (racemic)
Task item: Compare the recorded IC50 of I and II ; state which is larger. Indicate your choice by writing its label.
Reply: I
(I: 4.2 µM, II: 2.4 µM)

====

Experiment: Oral bioavailability in rat at 10 mg/kg
Format: ADME, organism-based
Conditions: in vivo
metric: bioavailability (%)

(P) COc1cc(NC(C(=O)c2c[nH]c3ccccc23)c2ccccc2)cc(OC)c1 (single isomer, unassigned; (+))
(Q) COc1cc(NC(C(=O)c2c[nH]c3ccccc23)c2ccccc2)cc(OCCO)c1 (single isomer, unassigned; (+))
Task item: Smaller bioavailability value? Options are P and Q Provide the label of your selected option as the answer.
Reply: P

====

Experiment: Drug metabolism in human liver microsomes after 15 mins
Type: ADME, microsome
Settings: microsomes, 0.25 h
metric: Drug metabolism (%)

For orientation, consider the following solved cases.
- molecule: "COc1cc(NC(C(=O)c2c[nH]c3ccccc23)c2ccccc2)cc(OC)c1 (racemic)"
  recordedResult: 11
- molecule: "COc1cc(NC(C(=O)c2c[nH]c3ccccc23)c2ccccc2)cc(OC)c1 (stereo in doubt; 12b)"
  recordedResult: 16

(1) COc1cc(NC(C(=O)c2c[nH]c3ccccc23)c2ccccc2)cc(OCCO)c1 (racemic)
(2) COc1cc(NC(C(=O)c2c[nH]c3ccccc23)c2ccccc2)cc(OCCO)c1 (single isomer, unassigned; (+))
Task item: Compare the recorded Drug metabolism of 1 and 2 ; state which is larger. Please identify the chosen entry by its label.
Reply: 1

====

Tested on: dengue virus type 3
Experiment: Antiviral activity against Dengue virus 3 H87 infected in African green monkey Vero cells assessed as reduction in viral yield after 7 days by qRT-PCR analysis
Type: functional, organism-based
Details: 168 h
pEC50: −log10 of the molar value.
metric: pEC50

Some molecules with recorded pEC50:
- molecule: "COc1ccc(NC(C(=O)c2c[nH]c3ccccc23)c2ccccc2)cc1OC (centres undefined)"
  assayedSystem: "dengue virus type 3"
  recordedResult: 4.53
- molecule: "COc1cc(NC(C(=O)c2c[nH]c3ccc(F)cc23)c2ccccc2)cc(OC)c1 (centres undefined)"
  assayedSystem: "dengue virus type 3"
  recordedResult: 6.17

(1) COc1cc(NC(C(=O)c2c[nH]c3ccccc23)c2ccccc2)cc(OC)c1 (single isomer, unassigned; (+))
(2) COc1cc(NC(C(=O)c2c[nH]c3ccccc23)c2cccnc2)cc(OC)c1 (centres undefined)
Task item: Hi there, can you help? I need to know whether 1 or 2 has lower measured pEC50. Indicate your choice by writing its label.
Reply: 2
